system: Vascular endothelial growth factor receptor 2 (Homo sapiens);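 further: each value is the mean percent inhibition of KDR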
conditions: at 1 µM
Task for the reader: assign each of the following molecules its reported inhibition.
Answer format: numeric, % implied, no suffix.

Which value of inhibition has been reported for `NS(=O)(=O)c1ccc(N/N=C2\C(=O)Nc3ccc(C(=O)NCCCn4ccnc4)cc32)cc1` in the records?
34.1

Form field: reported inhibition of `Fc1ccc(-c2nc3n(c2-c2ccncc2)CCS3)cc1`
8.03

For Nc1nccc(-c2c(-c3ccc(F)cc3)ncn2C2CCC(O)CC2)n1 (stereo not drawn) , what is its reported inhibition?
17.2

Name the reported inhibition value associated with the molecule `O=C1Nc2ccc(I)cc2C1=Cc1cc(Br)c(O)c(Br)c1`
9.7

Fill in the blank: the reported inhibition of `COc1cc2ncn(-c3cc(OCc4cccs4)c(C(N)=O)s3)c2cc1OC` is ____.
50.5

I'd like to know its inhibition. The molecule in question is `NS(=O)(=O)c1ccc(Nc2cc(-c3ccc(O)c(F)c3)n[nH]2)cc1`
35.3

Item under review: `COc1cc(Nc2ncc(-c3ccccc3)o2)cc(OC)c1OC` . Reported inhibition?
48

Value lookup for inhibition; key = `CNC(=O)c1cncc(/C=C/c2c(C)cccc2C)c1`
3.51

Fill in: inhibition of `Cc1ccc(NC(=O)c2ccoc2)cc1-c1ccc(C(=O)NCC2CC2)cc1` is ___
62

Which inhibition value belongs to `COc1ccc(-c2ccc3c(NC(=O)C4CC4)n[nH]c3n2)cc1` ?
3.4

Using the record for `O=C1NC(=O)C(c2cccc(Cl)c2)=C1Nc1ccc(Cl)c(C(=O)O)c1` , report its inhibition.
23.5

Fill in: inhibition of `CCS(=O)(=O)c1ccc(OC)c(Nc2ncc(-c3ccccc3Cl)o2)c1` is ___
33.8

# query: inhibition of entry `CCS(=O)(=O)c1ccc(OC)c(Nc2ncc(-c3cccc(-c4ccccc4F)c3)o2)c1`
89.5

Fill blank: measured inhibition of the molecule `CCc1nccc2c1nc(-c1nonc1N)n2CC` is ____.
17.7

Name the reported inhibition value associated with the molecule `NC(=O)c1cc(-c2ccc(F)cc2)cc(-c2ccncc2)c1N`
6.66

What value of inhibition has been recorded for this entry: `COc1cccc(/C=N/Nc2ncnc3c2cnn3-c2cccc(OC)c2)c1`
11.2

Given the molecule `NS(=O)(=O)c1ccc(N/N=C2\C(=O)Nc3ccc(-c4cnco4)cc32)cc1` , what is its reported inhibition?
39.1

Item under review: `Fc1ccc(-c2ncn(C3CCNCC3)c2-c2ccnc(Oc3ccc4c(c3)OCO4)n2)cc1` . Reported inhibition?
12.5

====

system: Phosphatidylinositol 4,5-bisphosphate 3-kinase catalytic subunit alpha isoform (Homo sapiens) (UniProt P42336);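 further: values are mean percent inhibition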
Sequence (P42336 whole entry, canonical isoform): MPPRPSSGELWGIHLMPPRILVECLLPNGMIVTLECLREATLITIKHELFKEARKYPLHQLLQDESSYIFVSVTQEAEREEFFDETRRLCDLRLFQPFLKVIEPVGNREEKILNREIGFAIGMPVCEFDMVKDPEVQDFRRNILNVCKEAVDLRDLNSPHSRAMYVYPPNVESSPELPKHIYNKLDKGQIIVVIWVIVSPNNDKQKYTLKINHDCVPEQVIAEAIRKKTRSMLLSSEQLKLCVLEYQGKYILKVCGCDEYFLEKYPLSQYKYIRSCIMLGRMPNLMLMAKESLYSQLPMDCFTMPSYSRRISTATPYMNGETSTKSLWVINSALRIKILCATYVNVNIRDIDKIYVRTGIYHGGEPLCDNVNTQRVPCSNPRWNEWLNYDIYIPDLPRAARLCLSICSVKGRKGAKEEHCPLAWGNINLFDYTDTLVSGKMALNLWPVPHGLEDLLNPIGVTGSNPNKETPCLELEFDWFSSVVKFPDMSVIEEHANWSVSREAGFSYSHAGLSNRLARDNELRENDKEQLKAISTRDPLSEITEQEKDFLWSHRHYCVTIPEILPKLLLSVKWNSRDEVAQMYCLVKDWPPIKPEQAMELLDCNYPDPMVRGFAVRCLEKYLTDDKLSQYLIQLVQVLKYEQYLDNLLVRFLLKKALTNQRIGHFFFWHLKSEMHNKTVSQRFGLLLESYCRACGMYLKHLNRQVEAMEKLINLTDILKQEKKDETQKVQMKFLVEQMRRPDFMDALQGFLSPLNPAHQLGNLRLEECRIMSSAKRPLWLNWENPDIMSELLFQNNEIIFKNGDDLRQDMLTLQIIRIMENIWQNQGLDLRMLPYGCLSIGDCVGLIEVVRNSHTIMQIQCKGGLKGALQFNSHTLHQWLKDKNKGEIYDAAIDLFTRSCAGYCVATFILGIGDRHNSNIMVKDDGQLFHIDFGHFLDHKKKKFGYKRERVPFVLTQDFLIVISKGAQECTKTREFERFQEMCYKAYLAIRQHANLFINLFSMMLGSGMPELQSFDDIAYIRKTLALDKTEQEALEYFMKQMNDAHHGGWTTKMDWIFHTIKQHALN
conditions: at 1 µM
Field: inhibition. Provide a value for each of the compounds that follow.
Report the figure in % without appending any unit label.

Given the compound `NCc1ccc(-n2c(-c3nonc3N)nc3cnccc32)cc1` , what is its reported inhibition?
4.8

Give its inhibition value. Item: `Fc1ccc(-c2ncn(C3CCNCC3)c2-c2ccnc(Oc3ccc(Oc4ccccc4)cc3)n2)cc1`
2.92

Fill blank: measured inhibition of the compound `NC(=O)c1cc(-c2ccncc2)cc(-c2ccccc2)c1N` is ____.
6.5

Entry `N#Cc1ccc(Oc2nccc(-c3c(-c4ccc(F)cc4)ncn3C3CCNCC3)n2)cc1` has what inhibition?
19.6

Reported inhibition for `CCC(=O)Nc1ccc(C)c(-c2ccc(C(=O)NCC3CC3)cc2)c1` : what is it?
0.64

====

For each record, write down the corresponding inhibition.
system: Protein-tyrosine kinase 6 (Homo sapiens) (UniProt Q13882)
Sequence (Q13882 whole entry, looked up): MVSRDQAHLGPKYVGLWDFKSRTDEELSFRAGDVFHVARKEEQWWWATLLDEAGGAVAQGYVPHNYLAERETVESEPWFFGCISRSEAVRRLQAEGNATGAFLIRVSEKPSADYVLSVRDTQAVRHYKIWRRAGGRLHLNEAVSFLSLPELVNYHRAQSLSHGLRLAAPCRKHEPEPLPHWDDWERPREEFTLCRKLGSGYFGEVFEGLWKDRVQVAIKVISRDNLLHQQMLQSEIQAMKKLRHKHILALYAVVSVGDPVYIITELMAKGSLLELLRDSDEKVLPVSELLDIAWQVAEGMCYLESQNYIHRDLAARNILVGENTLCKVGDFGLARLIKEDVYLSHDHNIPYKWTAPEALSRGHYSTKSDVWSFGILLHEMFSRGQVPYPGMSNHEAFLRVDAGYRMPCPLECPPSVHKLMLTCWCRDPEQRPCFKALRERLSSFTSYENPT
conditions: at 0.1 µM
Description: GSK_PKIS: BRK mean inhibition at 0.1 uM [Nanosyn]
Respond numerically; units are % and should not be typed.

Request the reported inhibition associated with `C#Cc1cccc(Nc2ncnc3ccc(OCCCCNCCS(C)(=O)=O)cc23)c1`
6.2

# query: inhibition of entry `COc1cc2ncn(-c3cc(OCCc4ccccc4)c(C(N)=O)s3)c2cc1OC`
-0.83

Need inhibition, item `CN(c1ccc(NC(=O)Nc2c(Cl)cccc2Cl)cc1)c1ccnc(Nc2cccc(CS(C)(=O)=O)c2)n1`
10.8

Please report the recorded inhibition for COc1ccc2cc(-c3c(-c4ccncc4)nc(-c4ccc([S+](C)[O-])cc4C)n3C)ccc2c1 (centres undefined) .
24.7

Given the molecule `FC(F)(F)c1cccc(Nc2nccc(-c3cnn4nc(-c5ccccc5)ccc34)n2)c1` , what is its reported inhibition?
-1.81

# lookup: inhibition of `O=C1NC(=O)C(c2cccc(Cl)c2)=C1Nc1ccc(Cl)c(C(=O)O)c1`
3.64

Which value of inhibition has been reported for `Cc1ccc(C(=O)NC2CCC2)cc1-c1ccc(C(=O)NCC2CC2)cc1` in the records?
1.28

// query inhibition value for entry `O=C(Nc1ccc(Oc2ccc3[nH]c(NC(=O)c4ccccc4)nc3c2)cc1)Nc1cc(C(F)(F)F)ccc1F`
3.52

So what's the measured inhibition for this one? `CN(C)c1ccc2c(c1)/C(=C/Nc1ccc(S(N)(=O)=O)cc1)C(=O)N2`
0.1

====

system: Phosphorylase b kinase gamma catalytic chain, skeletal muscle/heart isoform (Homo sapiens) (UniProt Q16816);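 further: values are averaged percent inhibition of PHKG1 kinase activity, from the GSK PKIS inhibitor-set screen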
Sequence (Q16816 whole entry, looked up, canonical isoform): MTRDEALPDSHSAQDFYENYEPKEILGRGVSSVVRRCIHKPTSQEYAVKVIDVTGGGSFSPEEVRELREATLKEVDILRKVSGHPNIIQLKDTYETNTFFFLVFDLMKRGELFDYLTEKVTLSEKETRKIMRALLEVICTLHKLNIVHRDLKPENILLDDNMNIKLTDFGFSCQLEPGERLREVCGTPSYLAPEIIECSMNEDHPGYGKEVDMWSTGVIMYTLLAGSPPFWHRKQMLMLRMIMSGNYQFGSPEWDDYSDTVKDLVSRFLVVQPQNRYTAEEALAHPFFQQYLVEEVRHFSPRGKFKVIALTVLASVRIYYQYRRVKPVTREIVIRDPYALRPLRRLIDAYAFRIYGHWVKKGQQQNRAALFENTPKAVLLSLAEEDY
conditions: at 0.1 µM
endpoint label: inhibition (%)
# number only, unit % dropped from output

Quick check: inhibition of `N#Cc1ccc(Oc2nccc(-c3c(-c4ccc(F)cc4)ncn3C3CCNCC3)n2)cc1` ?
5.34

I have this compound here, `COc1cccc(/C=N/Nc2ncnc3c2cnn3-c2cccc(OC)c2)c1` , and I need its recorded inhibition.
0.94

Which inhibition value belongs to `O=C1NC(=O)C(c2cccc(Cl)c2)=C1Nc1ccc(Cl)c(C(=O)O)c1` ?
3.55

Item `O=C1Nc2ccccc2/C1=C/Nc1ccc(-n2cncn2)cc1` has what recorded inhibition?
9.39

Tell me the measured inhibition of `CS(=O)(=O)CCNCc1cc(-c2cc3c(Nc4ccc(OCc5cccc(F)c5)c(Cl)c4)ncnc3s2)cs1` , please.
1.42

Any idea what inhibition was measured for `CN1CCN(CCCNc2nc3ccc(Oc4ccc(NC(=O)Nc5cc(C(F)(F)F)ccc5F)cc4)cc3[nH]2)CC1` ?
-0.01

Looking for the measured inhibition of `NC(=O)Cc1ccccc1Oc1nccc(-c2c(-c3ccc(F)cc3)ncn2C2CCNCC2)n1` , can you help?
4.43

So what does the record say about inhibition for `COc1cc(Nc2ncc(-c3ccccc3)o2)cc(OC)c1OC` ?
3.23

# query: inhibition of entry `C/C(Nc1ccc(S(N)(=O)=O)cc1)=C1/C(=O)Nc2ccccc21`
5.53

Report inhibition for `CNC(=O)c1cncc(/C=C/c2c(C)cccc2C)c1` please.
0.1

Suppose we examine the compound `COc1cc(Nc2ncc3c(C)nc(-c4cccc(Oc5ccccc5)c4)n3n2)cc(OC)c1OC` ; what inhibition value has been reported?
-0.01

====

Hi there, I'd appreciate the recorded inhibition for every entry that follows.
system: Casein kinase II subunit alpha (Homo sapiens)
conditions: at 0.1 µM
Description: GSK_PKIS: CK2 mean inhibition at 0.1 uM [Nanosyn]
Please reply with the bare figure in % and do not write the unit itself.

Reported inhibition for `COc1cc(C)c(N(C)C(=O)CN(C)C)cc1Nc1nc(Nc2cccc(F)c2C(N)=O)c2cc[nH]c2n1` : what is it?
0.17

Using the record for `O=C(Nc1n[nH]c2nc(-c3ccco3)ccc12)C1CC1` , report its inhibition.
0.99

Item `C#Cc1cccc(Nc2ncnc3ccc(OCCCCNCCS(C)(=O)=O)cc23)c1` has what recorded inhibition?
4.02

Consider the compound `CCN(CC)Cc1ccc(Nc2nccc(-c3cnn4ncccc34)n2)cc1` and give its measured inhibition.
10.9

Look up inhibition: `COc1cc2ncn(-c3cc(OCCc4ccccc4)c(C(N)=O)s3)c2cc1OC`
1.36

// lookup inhibition for `COc1cc(N2CCN(C(C)C)CC2)ccc1Nc1nc(Nc2ccc(F)cc2C(=O)NC[C@@H](O)CO)c2cc[nH]c2n1`
4.77

Quick one: inhibition of `NS(=O)(=O)c1ccc(N/N=C2\C(=O)Nc3ccc(C(=O)NCCCn4ccnc4)cc32)cc1` ?
6.89

Report inhibition for `c1ccc(-c2n[nH]cc2-c2ccnc(-c3ccc(OCCN4CCOCC4)cc3)c2)nc1` please.
-3.28

Please give the measured inhibition for this compound: `COc1cc(Nc2ncc(-c3ccccc3)o2)cc(OC)c1OC`
0.33

Returns the measured inhibition for the input compound. Input: `COc1cc2ncn(-c3cc(OCc4cccs4)c(C(N)=O)s3)c2cc1OC`
5.63

Form field: reported inhibition of `FC(F)(F)c1cccc(Nc2nccc(-c3cnn4nc(-c5ccccc5)ccc34)n2)c1`
7.97

Give the measured inhibition of Nc1nccc(-c2c(-c3ccc(F)cc3)ncn2C2CCC(O)CC2)n1 (configuration not stated) .
-0.03

Dear colleague, I am looking for the recorded inhibition of the following compound: `CN(C)c1ccc2c(c1)/C(=C/Nc1ccc(S(N)(=O)=O)cc1)C(=O)N2`
2.93

Please give the measured inhibition for this compound: `NS(=O)(=O)c1ccc(N/N=C2\C(=O)Nc3ccc(-c4cnco4)cc32)cc1`
5.69

What inhibition value was documented for this compound, `COc1cc2ncn(-c3cc(OCc4ccccc4C(F)(F)F)c(C(C)=O)s3)c2cc1OC` ?
5.99

Any idea what inhibition was measured for `NCc1ccc(-n2c(-c3nonc3N)nc3cnccc32)cc1` ?
9.32

Give the measured inhibition of `O=C(NCC1CC1)c1ccc(-c2cccc(C(=O)NC3CC3)c2)cc1` .
0.31
